assay: Cytotoxicity against human HepG2 cells assessed as cell viability at 0.4 uM after 72 hrs by WST1 assay (reference value: 100%); format: cell-based; conditions: read-out: Activity
Listing of entries alongside the reported viability at 72 h, 0.4 µM.
Just the number in %, nothing appended.

molecule | endpoint value
C=C(C)[C@@H]1NC(=O)[C@H](N(C)C)[C@H](O)c2cc(Cl)c(O)c(c2)O[C@](C)(CC)[C@@H](C(=O)N2CC=C[C@H]2C(=O)N/C(C(=O)N/C(=C/C(=O)O)C(=O)O)=C(\C)CC)NC1=O | 101

Please examine the following record next.
For the compound "C=C(C)[C@@H]1NC(=O)[C@H](NC)[C@H](O)c2cc(Cl)c(O)c(c2)O[C@](C)(CC)[C@@H](C(=O)N2CC=C[C@H]2C(=O)N/C(C(=O)N/C(=C/C(=O)O)C(=O)O)=C(\C)CC)NC1=O" , give its reported viability at 72 h, 0.4 µM. 105
